# targetOrSystem: human STING (E. coli produced truncated STING protein) (Homo sapiens, UniProt Q86WV6, H232R)
# Construct: contains residues 139-379 of Q86WV6 with an R at position 232 (H232R); HIS tag (N, cleaved yes)
# Sequence (Q86WV6 139-379 H232R): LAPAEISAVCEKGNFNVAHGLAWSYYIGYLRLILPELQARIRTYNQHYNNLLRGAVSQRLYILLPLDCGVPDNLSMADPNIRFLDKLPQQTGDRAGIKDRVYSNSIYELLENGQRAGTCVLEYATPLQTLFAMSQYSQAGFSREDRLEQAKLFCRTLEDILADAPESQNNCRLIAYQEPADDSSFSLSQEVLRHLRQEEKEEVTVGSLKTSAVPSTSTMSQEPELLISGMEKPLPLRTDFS
# assayText: STING SPR binding assay
# testContext: steady state affinity, 1:1 binding model, 25° C.
pKd: −log10 of the molar value.
recordedMetric: pKd

molecule	pKd
Nc1nc2c(ncn2[C@@H]2O[C@@H]3COP(=O)(O)O[C@H]4[C@@H](O)[C@H](n5cnc6c(=O)[nH]c(N)nc65)O[C@@H]4COP(=O)(O)O[C@H]3[C@H]2O)c(=O)[nH]1 [3′,3′cGMP, reference compound]	5.40

(1) Nc1ncnc2c1ncn2[C@@H]1O[C@@H]2COP(=O)(O)O[C@H]3[C@@H](O)[C@H](n4cnc5c(N)ncnc54)O[C@@H]3COP(=O)(O)O[C@H]2[C@H]1O [3′,3′cAMP, reference compound]
(2) CO[C@H]1[C@H]2OS(=O)(=O)NC[C@]34CO[C@H](C3OP(=O)(O)OC[C@H]1O[C@H]2n1cnc2c(=O)[nH]c(N)nc21)[C@H](n1cnc2c(N)ncnc21)O4 (stereo partly drawn)
(3) Nc1nc2c(ncn2[C@@H]2O[C@@H]3COP(=O)(O)O[C@H]4[C@@H](F)[C@H](n5cnc6c(N)ncnc65)O[C@@H]4CNS(=O)(=O)O[C@@H]2[C@@H]3O)c(=O)[nH]1
(4) CO[C@H]1[C@H]2OP(=O)(O)OC[C@@]34CO[C@@H]([C@H](n5cnc6c(N)ncnc65)O3)[C@@H]4OS(=O)(=O)NC[C@H]1O[C@H]2n1cnc2c(=O)[nH]c(N)nc21
// ranking: key=pKd, reverse=True Show the ranking through the labels, in the order asked for.
3, 2, 4, 1

(I) CO[C@H]1[C@H]2OP(=O)(O)OC[C@H]3O[C@@H](n4cnc5c(N)ncnc54)C[C@@H]3NS(=O)(=O)OC[C@H]1O[C@H]2n1cnc2c(=O)[nH]c(N)nc21
(II) CO[C@H]1[C@H]2OS(=O)(=O)NC[C@H]3O[C@@H](n4cnc5c(N)ncnc54)[C@H](F)[C@@H]3OP(=O)(O)OC[C@H]1O[C@H]2n1cnc2c(=O)[nH]c(N)nc21
(III) Nc1ncnc2c1ncn2C1O[C@@H]2CNS(=O)(=O)O[C@H]3C(n4cnc5c(N)ncnc54)O[C@H](COP(=O)(O)O[C@H]2[C@H]1F)[C@H]3O (stereo partly drawn)
Order the records, beginning with the lowest pKd and ending with the highest. Show the ranking through the labels, in the order asked for.
III, I, II
(III: 5.29, I: 8.09, II: 8.92)
